Molecular target: Y1R
Sequence (P25929 whole entry): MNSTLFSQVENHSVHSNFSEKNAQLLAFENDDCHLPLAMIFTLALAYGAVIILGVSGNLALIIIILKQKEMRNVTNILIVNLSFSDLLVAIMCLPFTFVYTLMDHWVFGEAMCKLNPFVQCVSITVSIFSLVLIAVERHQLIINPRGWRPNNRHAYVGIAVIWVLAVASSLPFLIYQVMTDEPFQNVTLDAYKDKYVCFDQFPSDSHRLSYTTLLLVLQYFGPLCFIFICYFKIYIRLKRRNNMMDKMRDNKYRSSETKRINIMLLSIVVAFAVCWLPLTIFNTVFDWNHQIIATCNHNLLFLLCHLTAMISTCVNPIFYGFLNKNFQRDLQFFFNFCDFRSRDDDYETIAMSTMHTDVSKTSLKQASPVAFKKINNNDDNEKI
Assay: cell-based or functional assay
Numbered stars: 1 amine (or outer) side, 2 acyl side, 3 side chain; on linkers, the order of the positions; unused ones are H or OH. Square brackets hold non-standard residues; d marks the D form. Primed or numbered codes have the meaning given here. HomPqa = 3-hydroxy-2-(4-oxo-6-piperazin-1-yl-4H-quinazolin-3-yl)-propionic acid, O=C(C(CO[*:3])n1cnc2ccc(N3CCN([*:1])CC3)cc2c1=O)[*:2]; Dqa = (6-[1,4]diazepan-1-yl-4-oxo-4H-quinazolin-3-yl)-acetic acid, O=C(Cn1cnc2ccc(N3CCCN([*:1])CC3)cc2c1=O)[*:2]; Appa = (6-Amino-2-piperazin-1-yl-9H-purin-8-yl)-acetic acid, Nc1nc(N2CCN([*:1])CC2)nc2[nH]c(CC(=O)[*:2])nc12; Cba′ = (4-Aminomethyl-biphenyl-3-yl)-acetic acid, O=C(Cc1cc(-c2ccccc2)ccc1CN[*:1])[*:2]; Bqa = ((1R,4S)-6-2-Aza-bicyclo[2.2.1]hept-5-yl-4-oxo-4H-quinazolin)-acetic acid; Ppa = (2-piperazin-1-yl-purin-7-yl)-acetic acid; NMeR = CN[C@@H](CCCNC(=N)N)C(=O)O
MEASURED ENDPOINT: Y1R EC50 (nM) FLIPR

Below, 5 binders whose answers are already recorded.
Ac-IK[Dqa]RHYLNWVTRQ[NMeR]Y-NH2 [Ac-Ile-Lys-Dqa-Arg-His-Tyr-Leu-Asn-Trp-Val-Thr-Arg-Gln-(NMe)Arg-Tyr-NH2]: > 9000 nM
Ac-IK[Appa]RHYLNWVTRQ[NMeR]Y-NH2 [Ac-Ile-Lys-Appa-Arg-His-Tyr-Leu-Asn-Trp-Val-Thr-Arg-Gln-(NMe)Arg-Tyr-NH2]: > 5000 nM
Ac-IK[HomPqa]RHYLNWVTRQ[NMeR]Y-NH2 [Ac-Ile-Lys-HomPqa-Arg-His-Tyr-Leu-Asn-Trp-Val-Thr-Arg-Gln-(NMe)Arg-Tyr-NH2]: > 9000 nM
Ac-IK[Ppa]RHYLNWVTRQ[NMeR]Y-NH2 [Ac-Ile-Lys-Ppa-Arg-His-Tyr-Leu-Asn-Trp-Val-Thr-Arg-Gln-(NMe)Arg-Tyr-NH2]: > 5000 nM
Ac-IK[Cba′]RHYLNWVTRQ[NMeR]Y-NH2 [Ac-Ile-Lys-Cba-Arg-His-Tyr-Leu-Asn-Trp-Val-Thr-Arg-Gln-(NMe)Arg-Tyr-NH2]: > 30000 nM

Which Y1R EC50 (nM) FLIPR value belongs to Ac-IK[Bqa]RHYLNWVTRQ[NMeR]Y-NH2 [Ac-Ile-Lys-Bqa-Arg-His-Tyr-Leu-Asn-Trp-Val-Thr-Arg-Gln-(NMe)Arg-Tyr-NH2] ? > 5000 nM
